Experimental System: T1, PUF4 RNA-binding domain (Saccharomyces cerevisiae, UniProt P25339 537-888)
T1 sequence: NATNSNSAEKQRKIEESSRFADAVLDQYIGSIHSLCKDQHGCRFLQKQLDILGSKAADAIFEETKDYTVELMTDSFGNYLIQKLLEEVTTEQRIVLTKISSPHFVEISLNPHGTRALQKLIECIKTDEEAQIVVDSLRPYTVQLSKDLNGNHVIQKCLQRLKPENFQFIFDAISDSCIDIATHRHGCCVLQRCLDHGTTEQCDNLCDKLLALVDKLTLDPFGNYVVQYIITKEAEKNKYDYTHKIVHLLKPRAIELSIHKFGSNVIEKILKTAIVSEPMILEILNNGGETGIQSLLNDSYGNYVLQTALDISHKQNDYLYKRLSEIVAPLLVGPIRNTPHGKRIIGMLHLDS
Assay Overview: Mg; RNA-MaP; 20 mM Na-HEPES pH 7.4, 30 mM KOAc, 0.75 mM MgCl2, 0.1% Tween-20, 5% glycerol, 0.1 mg/mL BSA, 2 mM DTT; 25 C; 0.0125-409.6 nM protein
Condition Summary: tags: N-His6-TEV cleaved; C-SNAP kept, Cy3B-labelled; label: tethered on chip by stalled RNA polymerase
Would you kindly list Kd for each of these binders?
Numbers only, in nM.

Guide cases for Kd, answers given:
Binder	Assay Metric	Observed Measurement
Ic_S2_P4E.1_K4.1_C4.1_H4.1_A4.1_[A6T]_[T7A]_F4.1_[T8C]_[A9G]_T4.1 (ssRNA) RNA: UUUGAUUAAUAUGAUAUCGUUCUUUCUUGUAUUACGUUCUUUCUCGAUAUCAUAUUAAUCUUU	Kd	93.7
UCUCUUAAUGUAUAUAUCUCUCUU (ssRNA) [Id_ii_S1_P3E.2_K3.1_C3.2_[C-2A]_[T-1A]_H3.1_A3.1_F3.1_T3.2_[A10C]]	Kd	10.4
Ic_S4_P5E.1_K5.1_C5.1_H5.1_A5.1_[T5C]_[T6G]_[A7T]_F5.1_[T8G]_[T9C]_[A10C]_T5.1 (ssRNA) RNA: UUUGACAACUGAUCGUUCUUUCUUGUACGUGCCUUCUUUCUCGAUCAGUUGUCUUU	Kd	125
UCUCUUUGUAUACUCUCUUAUCUCUU (ssRNA) [Ie_S1_P4E.1_K4.1_C4.1_H4.1_A4.1_[+6CTCTC]_F4.1_T4.1]	Kd	10.9
Ie_S2_P5E.1_K5.1_C5.1_H5.1_A5.1_F5.1_[+8TTC]_T5.1 (ssRNA) RNA: UUUGAUUAAUAUGAUAUCGUUCUUUCUUGUAUUAUUUCUAUUCUUUCUCGAUAUCAUAUUAAUCUUU	Kd	7.64

Each of the following entries comes with a recorded value; kindly state Kd for each.
1. Ib_S2_P4E.1_K4.1_C4.1_H4.1_[T1C]_A4.1_[A6T]_F4.1_T4.1 (ssRNA) RNA: UUUGAUUAAUAUGAUAUCGUUCUUUCUCGUAUUUUAUUCUUUCUCGAUAUCAUAUUAAUCUUU
2. Ib_S4_P3E.1_K3.1_C3.1_H3.1_A3.1_[T5C]_[A6C]_F3.1_T3.1 (ssRNA) RNA: UUUGACAACUGAUCGUUCUUUCUUGUACCUAUUCUUUCUCGAUCAGUUGUCUUU
3. Id_ii_S2_P3E.2_K3.1_C3.2_[T-1A]_H3.1_A3.1_F3.1_T3.2 (ssRNA) RNA: UUUGAUUAAUAUGAUAUCGUUCUUUCUCAUGUAUAUAUAUUCUUUCUCGAUAUCAUAUUAAUCUUU
4. UCUCUUUGUAUUAUCCCUUAUCUCUU (ssRNA) [Ie_S1_P5E.1_K5.1_C5.1_H5.1_A5.1_F5.1_[+8CCCT]_T5.1]
5. Id_ii_S2_P3E.2_K3.1_C3.2_[C-2T]_[T-1G]_H3.1_A3.1_F3.1_T3.2_[T9G]_[A10T] (ssRNA) RNA: UUUGAUUAAUAUGAUAUCGUUCUUUCUUGUGUAUAUAGUUUCUUUCUCGAUAUCAUAUUAAUCUUU

Output:
[126, 14.8, 1.35, 33.5, 3.09]
